# Test system: Lepidium sativum L. roots
# Setup conditions: 1.00% (w/w) compound in the medium, 24 h incubation, mean(±SD), n = 3
Each item that follows carries a reported Inhibition of the root growth in pregerminated Lepidium sativum seeds (IRG, %).

Examples from the recorded data:
1. NC(CCC(=O)O)C(=O)O.OCCN(CCO)CCO (stereo not drawn) [[TEA][Glu]]    36.3(±2.2) %
2. NCCCC[C@H](N)C(=O)O.OCCN(CCO)CCO [[TEA][Lys]]    63.5(±0.9) %
3. CSCC[C@H](N)C(=O)O.OCCN(CCO)CCO [[TEA][Met]]    52.1(±2.2) %
4. N=C(N)NCCC[C@H](N)C(=O)O.OCCN(CCO)CCO [[TEA][Arg]]    65.4(±1.0) %
5. N[C@@H](Cc1c[nH]cn1)C(=O)O.OCCN(CCO)CCO [[TEA][His]]    48.6(±1.6) %

Identify the measured Inhibition of the root growth in pregerminated Lepidium sativum seeds (IRG, %) of NC(CCC(=O)O)C(=O)O.OCCN(CCO)CCO.OCCN(CCO)CCO (stereo not drawn) [[TEA]2[Glu]] for Lepidium sativum L. roots.
51.5(±2.1) %

Identify the measured Inhibition of the root growth in pregerminated Lepidium sativum seeds (IRG, %) of NCC(=O)O.OCCN(CCO)CCO [[TEA][Gly]] for Lepidium sativum L. roots.
75.7(±0.7) %

Identify the measured Inhibition of the root growth in pregerminated Lepidium sativum seeds (IRG, %) of N[C@@H](Cc1c[nH]c2ccccc12)C(=O)O.OCCN(CCO)CCO [[TEA][Trp]] for Lepidium sativum L. roots.
57.6(±0.8) %

Identify the measured Inhibition of the root growth in pregerminated Lepidium sativum seeds (IRG, %) of CC(C)C[C@H](N)C(=O)O.OCCN(CCO)CCO [[TEA][Leu]] for Lepidium sativum L. roots.
53.0(±1.0) %

From: paper PMC12029836
